Source listed as the NIST ThermoML archive (doi:10.1021/je9003178).

- Method Description: activity coefficient (dimensionless); of the first substance listed, at infinite dilution; xn = mol fraction of the nth substance listed
- Run Parameters: 343.15 K; Liquid; Chromatography; x1 = 0
Metric: activity coefficient

INSERT INTO measurements (molecule, value) VALUES
  ('CC(C)CC(C)(C)C [2,2,4-trimethylpentane] + CCn1cc[n+](C)c1.N#CN=C=[N-]', 162),
  ('CCCCCCCCCCCCCC [tetradecane] + CCn1cc[n+](C)c1.N#CN=C=[N-]', 2190),
  ('CO [methanol] + CCn1cc[n+](C)c1.N#CN=C=[N-]', 0.41),
  ('c1ccncc1 [pyridine] + CCn1cc[n+](C)c1.N#CN=C=[N-]', 1.07),
  ('CCC[N+](=O)[O-] [1-nitropropane] + CCn1cc[n+](C)c1.N#CN=C=[N-]', 1.49),
  ('CC1CCCCC1 [methylcyclohexane] + CCn1cc[n+](C)c1.N#CN=C=[N-]', 61.3),
  ('CCCCCCCCCC [decane] + CCn1cc[n+](C)c1.N#CN=C=[N-]', 565),
  ('CCO [ethanol] + CCn1cc[n+](C)c1.N#CN=C=[N-]', 0.75),
  ('CCCC=O [butanal] + CCn1cc[n+](C)c1.N#CN=C=[N-]', 2.21);

====

- Method Description: activity coefficient (dimensionless); of the first substance listed, at infinite dilution; xn = mol fraction of the nth substance listed
- Run Parameters: 343.85 K; Liquid; Chromatography; x1 = 0
Binary call on activity coefficient: 1 (yes) from 0.7 upward, 0 (no) beneath that.

INSERT INTO assay_data (molecule, class_assignment) VALUES
  ('ClC(Cl)Cl [trichloromethane] + CCCCCC[N+](C)(C)C.O=S(=O)([N-]S(=O)(=O)C(F)(F)F)C(F)(F)F', '1 (yes)'),
  ('CC(C)O [propan-2-ol] + CCCCCC[N+](C)(C)C.O=S(=O)([N-]S(=O)(=O)C(F)(F)F)C(F)(F)F', '1 (yes)'),
  ('C#CCCCCC [1-heptyne] + CCCCCC[N+](C)(C)C.O=S(=O)([N-]S(=O)(=O)C(F)(F)F)C(F)(F)F', '1 (yes)'),
  ('CCCCCCC [heptane] + CCCCCC[N+](C)(C)C.O=S(=O)([N-]S(=O)(=O)C(F)(F)F)C(F)(F)F', '1 (yes)'),
  ('CCOCC [diethyl ether] + CCCCCC[N+](C)(C)C.O=S(=O)([N-]S(=O)(=O)C(F)(F)F)C(F)(F)F', '1 (yes)'),
  ('CCCCCC [hexane] + CCCCCC[N+](C)(C)C.O=S(=O)([N-]S(=O)(=O)C(F)(F)F)C(F)(F)F', '1 (yes)'),
  ('CCCC=O [butanal] + CCCCCC[N+](C)(C)C.O=S(=O)([N-]S(=O)(=O)C(F)(F)F)C(F)(F)F', '0 (no)'),
  ('c1ccncc1 [pyridine] + CCCCCC[N+](C)(C)C.O=S(=O)([N-]S(=O)(=O)C(F)(F)F)C(F)(F)F', '0 (no)'),
  ('C1COCCO1 [1,4-dioxane] + CCCCCC[N+](C)(C)C.O=S(=O)([N-]S(=O)(=O)C(F)(F)F)C(F)(F)F', '0 (no)'),
  ('CCCCCCCCCC [decane] + CCCCCC[N+](C)(C)C.O=S(=O)([N-]S(=O)(=O)C(F)(F)F)C(F)(F)F', '1 (yes)'),
  ('Cc1ccccc1C [1,2-dimethylbenzene] + CCCCCC[N+](C)(C)C.O=S(=O)([N-]S(=O)(=O)C(F)(F)F)C(F)(F)F', '1 (yes)'),
  ('C[N+](=O)[O-] [nitromethane] + CCCCCC[N+](C)(C)C.O=S(=O)([N-]S(=O)(=O)C(F)(F)F)C(F)(F)F', '0 (no)'),
  ('C#CCCCC [1-hexyne] + CCCCCC[N+](C)(C)C.O=S(=O)([N-]S(=O)(=O)C(F)(F)F)C(F)(F)F', '1 (yes)'),
  ('CCC(=O)CC [pentan-3-one] + CCCCCC[N+](C)(C)C.O=S(=O)([N-]S(=O)(=O)C(F)(F)F)C(F)(F)F', '0 (no)'),
  ('CCCO [propan-1-ol] + CCCCCC[N+](C)(C)C.O=S(=O)([N-]S(=O)(=O)C(F)(F)F)C(F)(F)F', '1 (yes)'),
  ('c1ccsc1 [thiophene] + CCCCCC[N+](C)(C)C.O=S(=O)([N-]S(=O)(=O)C(F)(F)F)C(F)(F)F', '1 (yes)'),
  ('C=O [methanal] + CCCCCC[N+](C)(C)C.O=S(=O)([N-]S(=O)(=O)C(F)(F)F)C(F)(F)F', '0 (no)'),
  ('Cc1ccccc1 [toluene] + CCCCCC[N+](C)(C)C.O=S(=O)([N-]S(=O)(=O)C(F)(F)F)C(F)(F)F', '1 (yes)'),
  ('CCCC(C)=O [pentan-2-one] + CCCCCC[N+](C)(C)C.O=S(=O)([N-]S(=O)(=O)C(F)(F)F)C(F)(F)F', '0 (no)'),
  ('CC1CCCCC1 [methylcyclohexane] + CCCCCC[N+](C)(C)C.O=S(=O)([N-]S(=O)(=O)C(F)(F)F)C(F)(F)F', '1 (yes)'),
  ('CO [methanol] + CCCCCC[N+](C)(C)C.O=S(=O)([N-]S(=O)(=O)C(F)(F)F)C(F)(F)F', '1 (yes)'),
  ('c1ccccc1 [benzene] + CCCCCC[N+](C)(C)C.O=S(=O)([N-]S(=O)(=O)C(F)(F)F)C(F)(F)F', '1 (yes)'),
  ('OCC(F)(F)F [2,2,2-trifluoroethanol] + CCCCCC[N+](C)(C)C.O=S(=O)([N-]S(=O)(=O)C(F)(F)F)C(F)(F)F', '0 (no)'),
  ('ClCCl [dichloromethane] + CCCCCC[N+](C)(C)C.O=S(=O)([N-]S(=O)(=O)C(F)(F)F)C(F)(F)F', '1 (yes)'),
  ('CCC(C)=O [butanone] + CCCCCC[N+](C)(C)C.O=S(=O)([N-]S(=O)(=O)C(F)(F)F)C(F)(F)F', '0 (no)');

====

- Method Description: activity coefficient (dimensionless); of the first substance listed, at infinite dilution; xn = mol fraction of the nth substance listed
- Run Parameters: 332.85 K; Liquid; Chromatography; x1 = 0
Please map values of activity coefficient to classes as shown: group A = under 2, group B = from 2 up to 40, group C = 40 and over

INSERT INTO measurements (compound, class_assignment) VALUES
  ('CCCC(C)=O [pentan-2-one] + CCn1cc[n+](C)c1.N#CN=C=[N-]', 'group B'),
  ('Cc1ccc(C)cc1 [1,4-dimethylbenzene] + CCn1cc[n+](C)c1.N#CN=C=[N-]', 'group B'),
  ('CCCCO [butan-1-ol] + CCn1cc[n+](C)c1.N#CN=C=[N-]', 'group A'),
  ('CCCCCC [hexane] + CCn1cc[n+](C)c1.N#CN=C=[N-]', 'group C'),
  ('C[N+](=O)[O-] [nitromethane] + CCn1cc[n+](C)c1.N#CN=C=[N-]', 'group A'),
  ('C=CCCCC [hex-1-ene] + CCn1cc[n+](C)c1.N#CN=C=[N-]', 'group C'),
  ('CCO [ethanol] + CCn1cc[n+](C)c1.N#CN=C=[N-]', 'group A'),
  ('C=O [methanal] + CCn1cc[n+](C)c1.N#CN=C=[N-]', 'group A'),
  ('CCCCCCC [heptane] + CCn1cc[n+](C)c1.N#CN=C=[N-]', 'group C'),
  ('CCN(CC)CC [triethylamine] + CCn1cc[n+](C)c1.N#CN=C=[N-]', 'group B'),
  ('CCCCCCCCCCCCCC [tetradecane] + CCn1cc[n+](C)c1.N#CN=C=[N-]', 'group C'),
  ('CC1CCCC1 [methylcyclopentane] + CCn1cc[n+](C)c1.N#CN=C=[N-]', 'group C'),
  ('C#CCCCC [1-hexyne] + CCn1cc[n+](C)c1.N#CN=C=[N-]', 'group B'),
  ('CCC(=O)CC [pentan-3-one] + CCn1cc[n+](C)c1.N#CN=C=[N-]', 'group B'),
  ('CCC[N+](=O)[O-] [1-nitropropane] + CCn1cc[n+](C)c1.N#CN=C=[N-]', 'group A'),
  ('CC(C)CO [2-methyl-1-propanol] + CCn1cc[n+](C)c1.N#CN=C=[N-]', 'group A'),
  ('CCCC=O [butanal] + CCn1cc[n+](C)c1.N#CN=C=[N-]', 'group B'),
  ('Cc1ccccc1C [1,2-dimethylbenzene] + CCn1cc[n+](C)c1.N#CN=C=[N-]', 'group B'),
  ('CCCCCCCC [octane] + CCn1cc[n+](C)c1.N#CN=C=[N-]', 'group C'),
  ('CC(C)CC(C)(C)C [2,2,4-trimethylpentane] + CCn1cc[n+](C)c1.N#CN=C=[N-]', 'group C');
